Molecular target: huCTLA4 (Homo sapiens, UniProt P16410)
Sequence (P16410 36-223): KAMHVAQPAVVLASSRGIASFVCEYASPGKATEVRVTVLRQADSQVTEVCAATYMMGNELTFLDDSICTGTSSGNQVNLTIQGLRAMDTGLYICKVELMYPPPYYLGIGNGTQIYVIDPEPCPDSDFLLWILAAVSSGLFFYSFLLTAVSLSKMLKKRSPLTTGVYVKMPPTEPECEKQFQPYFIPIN
Assay: Flow binding to CHO cells stably expressing CTLA4
Parameters: huCTLA4 and huPD-L1, full-length mammalian surface expression constructs were generated; expressed in transfected cells; host or cells: CHO cells, lentiviral transduction, sorted to >98% purity
Conditions: Table E10; 33.3 nM; CHO cells stably expressing CTLA4
endpoint-name: CTLA4 MFI at 33.3 nM
Numbers only.

Example entries begin here.
• V22A/E35D/M47L/A71G (protein) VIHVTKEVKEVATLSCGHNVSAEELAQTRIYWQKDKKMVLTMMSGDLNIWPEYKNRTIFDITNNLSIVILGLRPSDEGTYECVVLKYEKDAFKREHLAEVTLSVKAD = 21855
• Q27H/E35D/M47I (protein) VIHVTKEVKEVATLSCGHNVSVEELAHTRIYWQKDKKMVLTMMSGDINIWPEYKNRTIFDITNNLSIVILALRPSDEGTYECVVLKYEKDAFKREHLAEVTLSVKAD = 27530
• H18Y/E35D/M47L/A71G/A91S (protein) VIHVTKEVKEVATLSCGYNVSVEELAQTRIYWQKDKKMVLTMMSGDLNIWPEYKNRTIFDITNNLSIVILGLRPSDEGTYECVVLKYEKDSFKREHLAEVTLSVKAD = 24218

// below: CTLA4 MFI at 33.3 nM requested for another molecule
Ask: For the molecule E35D/T41S/N48T (protein) VIHVTKEVKEVATLSCGHNVSVEELAQTRIYWQKDKKMVLSMMSGDMTIWPEYKNRTIFDITNNLSIVILALRPSDEGTYECVVLKYEKDAFKREHLAEVTLSVKAD , what CTLA4 MFI at 33.3 nM is on record?
Reply: 30262
